- TARGET_UNDER_TEST: T1, human CX3CR1 (human, UniProt P49238 1-355)
- T1 construct: Overexpressed on CHO K1, Ba/F3 or HEK293T cells; also called huCX3CR1; hCX3CR1
- T1 sequence: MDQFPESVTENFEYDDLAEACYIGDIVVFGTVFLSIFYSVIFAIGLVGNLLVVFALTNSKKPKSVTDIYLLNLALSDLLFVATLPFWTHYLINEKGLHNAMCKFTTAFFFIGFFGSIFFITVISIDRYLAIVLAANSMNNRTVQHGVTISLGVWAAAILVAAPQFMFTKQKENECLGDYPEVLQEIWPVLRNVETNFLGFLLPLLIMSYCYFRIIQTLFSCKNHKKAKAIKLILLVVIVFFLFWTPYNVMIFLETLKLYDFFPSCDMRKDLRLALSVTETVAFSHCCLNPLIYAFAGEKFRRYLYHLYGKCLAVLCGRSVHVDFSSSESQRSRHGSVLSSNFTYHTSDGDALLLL
- PROTOCOL: flow cytometry on CHO K1 huCX3CR1 cells, 30 uM HSA
pEC50: recorded values
pEC50 field: float, defined as -log10 of concentration (mol/L).

Recorded results for 2 binders are shown here.
INSERT INTO assay_data (binder, test_result) VALUES
  ('A041600035 (VHH, Trivalent ISVD construct (two anti-CX3CR1 ISVDs, one anti-albumin ISVD), C-terminal alanine included in the entry; also called 54A12_SO (E1D)-9GS-54A12_SO-9GS-ALB23002-A) DVQLVESGGGSVQPGGSLRLSCAASGSIFSSTAMAWYRQAPGKQRDLVAVISTVGITKYADSVKGRFTISRDNAKNTVYLQMNSLRPEDTALYYCTSDARRGWDTRYWGQGTLVTVSSGGGGSGGGSEVQLVESGGGSVQPGGSLRLSCAASGSIFSSTAMAWYRQAPGKQRDLVAVISTVGITKYADSVKGRFTISRDNAKNTVYLQMNSLRPEDTALYYCTSDARRGWDTRYWGQGTLVTVSSGGGGSGGGSEVQLVESGGGVVQPGGSLRLSCAASGFTFRSFGMSWVRQAPGKGPEWVSSISGSGSDTLYADSVKGRFTISRDNSKNTLYLQMNSLRPEDTALYYCTIGGSLSRSSQGTLVTVSSA', 9.44),
  ('A041600041 (VHH, Trivalent ISVD construct (two anti-CX3CR1 ISVDs, one anti-albumin ISVD), C-terminal alanine included in the entry; also called 54A12_SO (E1D)-9GS-66B02_SO-9GS-ALB23002-A) DVQLVESGGGSVQPGGSLRLSCAASGSIFSSTAMAWYRQAPGKQRDLVAVISTVGITKYADSVKGRFTISRDNAKNTVYLQMNSLRPEDTALYYCTSDARRGWDTRYWGQGTLVTVSSGGGGSGGGSEVQLVESGGGSVQPGGSLRLSCAASGSIFSSTAMAWYRQAPGKRRDLVAAINTVGVTKYADSVKGRFTISRDNAKNTVYLQMNSLRPEDTALYYCTSDPRRGWDTRYWGQGTLVTVSSGGGGSGGGSEVQLVESGGGVVQPGGSLRLSCAASGFTFRSFGMSWVRQAPGKGPEWVSSISGSGSDTLYADSVKGRFTISRDNSKNTLYLQMNSLRPEDTALYYCTIGGSLSRSSQGTLVTVSSA', 9.66);

# next binder below
**Query** # get_value(readout='pEC50', item= A041600034 (VHH, Trivalent ISVD construct; also called 54A12_SO (E1D)-9GS-ALB23002-9GS-66B02_SO-A) DVQLVESGGGSVQPGGSLRLSCAASGSIFSSTAMAWYRQAPGKQRDLVAVISTVGITKYADSVKGRFTISRDNAKNTVYLQMNSLRPEDTALYYCTSDARRGWDTRYWGQGTLVTVSSGGGGSGGGSEVQLVESGGGVVQPGGSLRLSCAASGFTFRSFGMSWVRQAPGKGPEWVSSISGSGSDTLYADSVKGRFTISRDNSKNTLYLQMNSLRPEDTALYYCTIGGSLSRSSQGTLVTVSSGGGGSGGGSEVQLVESGGGSVQPGGSLRLSCAASGSIFSSTAMAWYRQAPGKRRDLVAAINTVGVTKYADSVKGRFTISRDNAKNTVYLQMNSLRPEDTALYYCTSDPRRGWDTRYWGQGTLVTVSSA )
**Result** 9.20
